Consider the following compounds and their measured Ki readings.
Test: Displacement of [3H]flumazenil from bovine brain cortex GABAA/Bz receptor
Set-up: species or system Bos taurus
readout-type: Ki

substance_smiles=CC(C)Oc1ccc2c(c1)n1ncc(I)c1n[n+]2[O-] test_result="42 nM"
substance_smiles=Cc1ccc2c(c1)n1ncc(Cl)c1n[n+]2[O-] test_result="196 nM"
substance_smiles=CCOc1ccc2c(c1)n1ncc(I)c1n[n+]2[O-] test_result="4.8 nM"
substance_smiles=CCCCOc1ccc2c(c1)n1ncc(I)c1n[n+]2[O-] test_result="5.4 nM"
substance_smiles=CCOc1ccc2c(c1)n1ncc(Cl)c1n[n+]2[O-] test_result="160 nM"
substance_smiles=CCCCCOc1ccc2c(c1)n1ncc(I)c1n[n+]2[O-] test_result="6.5 nM"
substance_smiles=[O-][n+]1nc2c(Cl)cnn2c2cc(I)ccc21 test_result="202 nM"
substance_smiles=COc1ccc2c(c1)n1ncc(I)c1n[n+]2[O-] test_result="13.5 nM"
substance_smiles=[O-][n+]1nc2c(I)cnn2c2cc(OCC3CC3)ccc21 test_result="7.6 nM"
substance_smiles=[O-][n+]1nc2c(Br)cnn2c2cc(Br)ccc21 test_result="73 nM"
substance_smiles=C#CCOc1ccc2c(c1)n1ncc(I)c1n[n+]2[O-] test_result="0.8 nM"
substance_smiles=[O-][n+]1nc2c(Cl)cnn2c2cc(Br)ccc21 test_result="332 nM"
substance_smiles=Cc1ccc2c(c1)n1ncc(I)c1n[n+]2[O-] test_result="12 nM"
substance_smiles=CCOc1ccc2n[n+]([O-])c3c(I)cnn3c2c1 test_result="1.7 nM"
substance_smiles=CCOc1ccc2nnc3c(I)cnn3c2c1 test_result="18 nM"
substance_smiles=CCOc1ccc2c(c1)n1ncc(Br)c1n[n+]2[O-] test_result="36.9 nM"
substance_smiles=CCCOc1ccc2c(c1)n1ncc(I)c1n[n+]2[O-] test_result="12 nM"
substance_smiles=CSc1ccc2c(c1)n1ncc(I)c1n[n+]2[O-] test_result="15.8 nM"
substance_smiles=[O-][n+]1nc2c(I)cnn2c2cc(Br)ccc21 test_result="14 nM"
substance_smiles=[O-][n+]1nc2c(I)cnn2c2cc(I)ccc21 test_result="14 nM"
substance_smiles=Cc1ccc2c(c1)n1ncc(Br)c1n[n+]2[O-] test_result="53.2 nM"
substance_smiles=[O-][n+]1nc2c(Br)cnn2c2cc(Cl)ccc21 test_result="120 nM"
substance_smiles=CCOc1ccc2n[n+]([O-])c3c(Br)cnn3c2c1 test_result="15.6 nM"
substance_smiles=CN(C)CCOc1ccc2c(c1)n1ncc(I)c1n[n+]2[O-] test_result="233 nM"
substance_smiles=COCCOc1ccc2c(c1)n1ncc(I)c1n[n+]2[O-] test_result="37 nM"
substance_smiles=[O-][n+]1nc2c(I)cnn2c2cc(O)ccc21 test_result="1700 nM"

Reference source for all entries: ChEMBL document CHEMBL1142927
